Test: total protein half-life in vivo (active degradation + dilution); higher = more stable protein
Conditions: wild type E. coli NCM3722; growth: C-lim chemostat; doubling time 12 h
Property Name: total protein half-life in vivo (h)
Give bare numbers, in h.

Parameter requested: total protein half-life in vivo. Apply to each item below.
1. MMKKFIAPLLALLVSGCQIDPYTHAPTLTSTDWYDVGMEDAISGSAIKDDDAFSDSQADRGLYLKGYAEGQKKTCQTDFTYARGLSGKSFPASCNNVENASQLHEVWQKGADENASTIRLN
2. MTLEWWFAYLLTSIILSLSPGSGAINTMTTSLNHGYRGAVASIAGLQTGLAIHIVLVGVGLGTLFSRSVIAFEVLKWAGAAYLIWLGIQQWRAAGAIDLKSLASTQSRRHLFQRAVFVNLTNPKSIVFLAALFPQFIMPQQPQLMQYIVLGVTTIVVDIIVMIGYATLAQRIALWIKGPKQMKALNKIFGSLFMLVGALLASARHA [P0AG34]
3. MTWLPLNPIPLKDRVSMIFLQYGQIDVIDGAFVLIDKTGIRTHIPVGSVACIMLEPGTRVSHAAVRLAAQVGTLLVWVGEAGVRVYASGQPGGARSDKLLYQAKLALDEDLRLKVVRKMFELRFGEPAPARRSVEQLRGIEGSRVRATYALLAKQYGVTWNGRRYDPKDWEKGDTINQCISAATSCLYGVTEAAILAAGYAPAIGFVHTGKPLSFVYDIADIIKFDTVVPKAFEIARRNPGEPDREVRLACRDIFRSSKTLAKLIPLIEDVLAAGEIQPPAPPEDAQPVAIPLPVSLGDAGHRSS

Response:
1. 8.56
2. 2.28
3. 5.4
